Tested on: Arabidopsis thaliana L. (Columbia ecotype, Col-0) seedlings
Assay: Arabidopsis root sensitivity bioassay
Format: in vivo
Conditions: 0.1 nM, 7-day-old seedlings; control 16.3 ± 1.21
Method: Several bioassays such as the first bean internode, root growth and rice lamina inclination have been developed to evaluate the growth-promoting activity of BR derivatives. In this work, the activity of new BR analogues was evaluated using the Arabidopsis root sensitivity test because of its simplicity and high sensitivity for BRs.. […]
Quick reference: root length, mean of the listed items.

# compound, root length, mean, mm
records = [
    ("CC(C)[C@@H](C)[C@@H](O)[C@H](O)[C@@H](C)[C@H]1CC[C@H]2[C@@H]3COC(=O)[C@H]4C[C@H](O)[C@H](O)C[C@]4(C)[C@H]3CC[C@]12C [24-epiBL, 24-epibrassinolide, reference compound]", 15.811),
    ("C[C@H]([C@@H](O)[C@H](O)C(=O)N1CCCC1)[C@H]1CC[C@H]2[C@@H]3CC(=O)[C@H]4C[C@H](O)[C@H](O)C[C@]4(C)[C@H]3CC[C@]12C [20c]", 15.97),
    ("C[C@H](CN(C)C)[C@H]1CCC2C3CC(=O)[C@H]4C[C@H](O)[C@H](O)C[C@]4(C)C3CC[C@@]21C (some centres unmarked) [16a]", 18.91),
    ("C[C@H]([C@@H](O)[C@@H](O)CN1CCOCC1)[C@H]1CC[C@H]2[C@@H]3CC(=O)[C@H]4C[C@H](O)[C@H](O)C[C@]4(C)[C@H]3CC[C@]12C.Cl [22e]", 17.93),
    ("CCN(CC)C[C@@H](C)[C@H]1CCC2C3CC(=O)[C@H]4C[C@H](O)[C@H](O)C[C@]4(C)C3CC[C@@]21C (some centres unmarked) [16b]", 17.27),
    ("C[C@H]([C@@H](O)[C@H](O)C(=O)N1CCCCC1)[C@H]1CC[C@H]2[C@@H]3CC(=O)[C@H]4C[C@H](O)[C@H](O)C[C@]4(C)[C@H]3CC[C@]12C [20d]", 14.37),
    ("CCN(CC)C(=O)[C@@H](O)[C@H](O)[C@@H](C)[C@H]1CC[C@H]2[C@@H]3CC(=O)[C@H]4C[C@H](O)[C@H](O)C[C@]4(C)[C@H]3CC[C@]12C [20b]", 16.78),
    ("C[C@H](C(=O)N1CCCC1)[C@H]1CC[C@H]2[C@@H]3CC(=O)[C@H]4C[C@H](O)[C@H](O)C[C@]4(C)[C@H]3CC[C@]12C [8c]", 17.61),
    ("C[C@H](CN1CCOCC1)[C@H]1CCC2C3CC(=O)[C@H]4C[C@H](O)[C@H](O)C[C@]4(C)C3CC[C@@]21C (some centres unmarked) [16e]", 17.21),
    ("C[C@H](CN1CCCCC1)[C@H]1CC[C@H]2[C@@H]3CC(=O)[C@H]4C[C@H](O)[C@H](O)C[C@]4(C)[C@H]3CC[C@]12C [15d]", 14.18),
    ("C[C@H](CN1CCOCC1)[C@H]1CC[C@H]2[C@@H]3CC(=O)[C@H]4C[C@H](O)[C@H](O)C[C@]4(C)[C@H]3CC[C@]12C [15e]", 17.21),
    ("C[C@H](C(=O)N1CCCCC1)[C@H]1CC[C@H]2[C@@H]3CC(=O)[C@H]4C[C@H](O)[C@H](O)C[C@]4(C)[C@H]3CC[C@]12C [8d]", 17.11),
    ("C[C@H]([C@@H](O)[C@@H](O)CN(C)C)[C@H]1CC[C@H]2[C@@H]3CC(=O)[C@H]4C[C@H](O)[C@H](O)C[C@]4(C)[C@H]3CC[C@]12C.Cl [22a]", 19.56),
    ("C[C@H](CN1CCCC1)[C@H]1CC[C@H]2[C@@H]3CC(=O)[C@H]4C[C@H](O)[C@H](O)C[C@]4(C)[C@H]3CC[C@]12C [15c]", 16.78),
]

Measured values drawn from paper PMC7795425 for this set.
